Provenance of the data: patent US10160986B2

test system: NahK; assay: Kinase reaction monitored by CE (ATP to ADP), NahK; type: biochemical, Bifidobacterium infantis; settings: 24 hr; monosaccharide 15 mM, ATP 18 mM, 37° C.
Kindly apply the following: satisfied if ATP Conversion is less than 80%, not satisfied in every other case.

[N-]=[N+]=NC1C(O)OC(CO)[C@@H](O)C1O (stereo partly shown) [2N3-Man] :: satisfied

Exam item: Does the reported ATP Conversion of the following molecule sit strictly below 80%? N[C@@H]1C(O)O[C@H](CO)[C@@H](O)[C@@H]1O (stereo partly shown) [T6-13 ManNH2, mannosamine]
Marked response: satisfied

Exam item: Does the reported ATP Conversion of the following molecule sit strictly below 80%? NC1C(O)OC(CO)[C@@H](O)[C@@H]1O (stereo partly shown) [2-amino-2-deoxy-glucose]
Marked response: satisfied

Exam item: Does the reported ATP Conversion of the following molecule sit strictly below 80%? CC(=O)N[C@@H]1C(O)O[C@H](CO)[C@@H](O)[C@@H]1O (stereo partly shown) [N-acetylmannosamine]
Marked response: satisfied

Exam item: Does the reported ATP Conversion of the following molecule sit strictly below 80%? CC(=O)NC1C(O)OC(CO)[C@@H](O)[C@@H]1O (stereo partly shown) [GlcNAc, N-acetylglucosamine]
Marked response: not satisfied
